Can you tell me pest or weed control at 33 µg/cm2 for the items I'm about to list?
system: Watergrass (Echinochloa); experiment: Pre-Emergent Test, herbicidal effectiveness; format: in vivo; settings: pre-emergence, 504 h, 33 micrograms per cm^2, 3 weeks, 0-to-100 scale, read-out: Herbicidal Effectiveness, % Control Pre, W
Response body: numeric value in %, unit text excluded.

QUERY: Given the entry `Cc1cccc(C)c1N(Cc1nnc[nH]1)C(=O)CCl` , what pest or weed control at 33 µg/cm2 was observed with Watergrass (Echinochloa)?
RESULT: 100

QUERY: Form field - read-out: pest or weed control at 33 µg/cm2; system: Watergrass (Echinochloa); submitted item: CCc1nnc(CN(C(=O)CCl)c2c(C)cccc2CC)[nH]1 [Compound 15B]
RESULT: 100

QUERY: Item: CCc1nnc(CNc2c(C)cccc2CC)[nH]1 [Compound 15A] Test system: Watergrass (Echinochloa) Read-out: pest or weed control at 33 µg/cm2 Value: ?
RESULT: 0

---

tested on: Pigweed (Amaranthus retroflexus); assay: Post-Emergent Test, herbicidal effectiveness; type: in vivo; details: post-emergence, 504 h, 33 micrograms per cm^2, 3 weeks, 0-to-100 scale, read-out: Herbicidal Effectiveness, % Control Post, P
Provide the reported pest or weed control at 5000 µg/mL, 33 µg/cm2 of each item.

QUERY: Give its pest or weed control at 5000 µg/mL, 33 µg/cm2 value. Item: Cc1nnc(CN(C(=O)CCl)c2c(C)cccc2C)o1 [Compound 1B]
RESULT: 0%

QUERY: Field request: pest or weed control at 5000 µg/mL, 33 µg/cm2 | item: CSc1nnc(CN(C(=O)CCl)c2c(C)cccc2C)o1 [Compound 24B]
RESULT: 0%

QUERY: So what's the measured pest or weed control at 5000 µg/mL, 33 µg/cm2 for this one? Cc1nnc(CNc2c(C)cccc2C)o1 [Compound 1A]
RESULT: 0%

QUERY: Name the reported pest or weed control at 5000 µg/mL, 33 µg/cm2 value associated with the compound Cc1cccc(C)c1N(C(=O)CCl)C(C)c1nnc[nH]1 (centres unmarked) [Compound 12B]
RESULT: 20%

QUERY: Query: pest or weed control at 5000 µg/mL, 33 µg/cm2; subject: CCc1nnc(CNc2c(CC)cccc2CC)[nH]1 [Compound 8A]
RESULT: 0%

QUERY: Tell me the measured pest or weed control at 5000 µg/mL, 33 µg/cm2 of Cc1cccc(C)c1N(CCc1nnc[nH]1)C(=O)CCl [Compound 13] , please.
RESULT: 0%

QUERY: Param item = Cc1cccc(C)c1NC(C)c1nnc[nH]1 (centres unmarked) [Compound 12A] ; retrieve measured pest or weed control at 5000 µg/mL, 33 µg/cm2.
RESULT: 0%

QUERY: Query (compound): Cc1nnc(CN(C(=O)CCl)c2c(C)cccc2C)[nH]1 [Compound 2B] ; field requested: pest or weed control at 5000 µg/mL, 33 µg/cm2
RESULT: 32%

QUERY: Suppose we examine the compound CCc1cccc(C)c1N(Cc1nnc(C(C)C)[nH]1)C(=O)CCl [Compound 16B] ; what pest or weed control at 5000 µg/mL, 33 µg/cm2 value has been reported?
RESULT: 40%

QUERY: For the compound CCc1cccc(CC)c1N(Cc1nnc(SC)n1C)C(=O)CCl [Compound 23B] , what pest or weed control at 5000 µg/mL, 33 µg/cm2 is on record?
RESULT: 0%

QUERY: pest or weed control at 5000 µg/mL, 33 µg/cm2 for CCc1cccc(CC)c1NCc1nnc(SC)n1C [Compound 23A] ?
RESULT: 0%

QUERY: Any idea what its pest or weed control at 5000 µg/mL, 33 µg/cm2 is? The compound is Cc1cccc(C)c1N(Cc1nnc[nH]1)C(=O)CCl [Compound 9B]
RESULT: 0%

QUERY: What measured pest or weed control at 5000 µg/mL, 33 µg/cm2 goes with CCc1cccc(C)c1NCc1nnc(SC)n1C [Compound 21A] ?
RESULT: 0%

QUERY: Given the compound CCc1cccc(C)c1NCc1nnc(S)n1C [Compound 19] , what is its reported pest or weed control at 5000 µg/mL, 33 µg/cm2?
RESULT: 0%

QUERY: Look at this compound and give its reported pest or weed control at 5000 µg/mL, 33 µg/cm2. CCc1cccc(C)c1N(Cc1nnc(C)o1)C(=O)CCl [Compound 4]
RESULT: 0%

QUERY: For the compound Cc1cccc(C)c1NCc1nnc(S)n1C [Compound 3] , what pest or weed control at 5000 µg/mL, 33 µg/cm2 is on record?
RESULT: 0%

QUERY: Dear colleague, I am looking for the recorded pest or weed control at 5000 µg/mL, 33 µg/cm2 of the following compound: Cc1nnc(CN(C(=O)CCl)c2ccccc2C)[nH]1 [Compound 25B]
RESULT: 0%

QUERY: Endpoint output: pest or weed control at 5000 µg/mL, 33 µg/cm2 of Cc1cccc(C)c1NCc1nnc(S)[nH]1 [Compound 18A] . Value?
RESULT: 0%

QUERY: May I ask what pest or weed control at 5000 µg/mL, 33 µg/cm2 has been recorded for CSc1nnc(CNc2c(C)cccc2C)n1C [Compound 14A] ?
RESULT: 0%

QUERY: Which pest or weed control at 5000 µg/mL, 33 µg/cm2 value is on record for CCc1cccc(CC)c1N(Cc1nnc[nH]1)C(=O)CCl [Compound 20B] ?
RESULT: 35%

QUERY: // pest or weed control at 5000 µg/mL, 33 µg/cm2 lookup, key: Cc1nnc(CN(C(=O)CCl)c2cccc(C(F)(F)F)c2)[nH]1 [Compound 26B]
RESULT: 0%

QUERY: Bench note: what pest or weed control at 5000 µg/mL, 33 µg/cm2 did Cc1cccc(C)c1NCc1nnc[nH]1 [Compound 9A] show?
RESULT: 0%

QUERY: pest or weed control at 5000 µg/mL, 33 µg/cm2 lookup needed for CSc1nnc(CN(C(=O)CCl)c2c(C)cccc2C)n1C [Compound 14B] , thanks.
RESULT: 0%

QUERY: Name the reported pest or weed control at 5000 µg/mL, 33 µg/cm2 value associated with the compound Cc1nnc(CN(C(=O)CCl)c2ccc(Cl)c(Cl)c2)[nH]1 [Compound 27B]
RESULT: 0%

QUERY: Which value of pest or weed control at 5000 µg/mL, 33 µg/cm2 has been reported for Cc1nnc(CCN(C(=O)CCl)c2c(C)cccc2C)[nH]1 [Compound 10B] in the records?
RESULT: 0%

QUERY: # get_value(readout='pest or weed control at 5000 µg/mL, 33 µg/cm2', item= CCc1cccc(C)c1N(Cc1nnc[nH]1)C(=O)CCl [Compound 17B] )
RESULT: 65%

QUERY: Item Cc1nnc(CCNc2c(C)cccc2C)[nH]1 [Compound 10A] has what recorded pest or weed control at 5000 µg/mL, 33 µg/cm2?
RESULT: 0%

QUERY: Can you share its pest or weed control at 5000 µg/mL, 33 µg/cm2? I mean this compound: CCc1nnc(CN(C(=O)CCl)c2c(C)cccc2CC)[nH]1 [Compound 15B]
RESULT: 30%

QUERY: Request the reported pest or weed control at 5000 µg/mL, 33 µg/cm2 associated with Cc1nnc(C(C)Nc2c(C)cccc2C)[nH]1 (centres unmarked) [Compound 11A]
RESULT: 0%

QUERY: pest or weed control at 5000 µg/mL, 33 µg/cm2 for CCc1nnc(CNc2c(C)cccc2CC)[nH]1 [Compound 15A] ?
RESULT: 0%

QUERY: Fill blank: measured pest or weed control at 5000 µg/mL, 33 µg/cm2 of the compound CCc1cccc(C)c1NCc1nnc(C(C)C)[nH]1 [Compound 16A] is ____.
RESULT: 0%

QUERY: // pest or weed control at 5000 µg/mL, 33 µg/cm2 lookup, key: Cc1cccc(C)c1N(Cc1nnc(S)[nH]1)C(=O)CCl [Compound 18B]
RESULT: 0%

QUERY: Fill in the blank: the reported pest or weed control at 5000 µg/mL, 33 µg/cm2 of Cc1nnc(CNc2ccc(Cl)c(Cl)c2)[nH]1 [Compound 27A] is ____.
RESULT: 0%

QUERY: Suppose we examine the compound CSc1nnc(CNc2c(C)cccc2C)o1 [Compound 24A] ; what pest or weed control at 5000 µg/mL, 33 µg/cm2 value has been reported?
RESULT: 0%

QUERY: Returns the measured pest or weed control at 5000 µg/mL, 33 µg/cm2 for the input compound. Input: CCc1cccc(CC)c1NCc1nnc[nH]1 [Compound 20A]
RESULT: 0%

QUERY: Query: pest or weed control at 5000 µg/mL, 33 µg/cm2; subject: Cc1nnc(C(C)N(C(=O)CCl)c2c(C)cccc2C)[nH]1 (centres unmarked) [Compound 11B]
RESULT: 20%

QUERY: What does the record list as pest or weed control at 5000 µg/mL, 33 µg/cm2 for CCc1cccc(C)c1N(Cc1nnc(SC)n1C)C(=O)CCl [Compound 21B] ?
RESULT: 0%

QUERY: Value lookup for pest or weed control at 5000 µg/mL, 33 µg/cm2; key = CCc1cccc(C)c1NCc1nnc(C)[nH]1 [Compound 6A]
RESULT: 0%
